target: Gal6S(b1-3)GlcNAc6S; assay: glycan array binding signal (z-score within array); higher = stronger binding; conditions: glycan notation: IUPAC condensed, linker removed
Many of the other results were omitted from the sample, so the strongest signals are more common in it than they were.
The following binders are listed with their measured glycan array binding signal (z-score) values.
Outcome measure: glycan array binding signal (z-score)

- AFL (Aspergillus fumigatus), Q4WW81 (protein) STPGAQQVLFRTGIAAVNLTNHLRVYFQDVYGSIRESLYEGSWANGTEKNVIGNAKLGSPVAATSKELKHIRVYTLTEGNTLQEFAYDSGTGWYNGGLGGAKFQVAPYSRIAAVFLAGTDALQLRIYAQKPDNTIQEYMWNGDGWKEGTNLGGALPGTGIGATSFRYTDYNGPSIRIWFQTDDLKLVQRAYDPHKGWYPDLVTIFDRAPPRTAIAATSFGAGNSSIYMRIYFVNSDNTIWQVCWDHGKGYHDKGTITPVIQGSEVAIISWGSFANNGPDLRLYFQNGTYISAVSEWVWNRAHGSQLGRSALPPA: -0.385
- Epa12 (Candida glabrata) (protein) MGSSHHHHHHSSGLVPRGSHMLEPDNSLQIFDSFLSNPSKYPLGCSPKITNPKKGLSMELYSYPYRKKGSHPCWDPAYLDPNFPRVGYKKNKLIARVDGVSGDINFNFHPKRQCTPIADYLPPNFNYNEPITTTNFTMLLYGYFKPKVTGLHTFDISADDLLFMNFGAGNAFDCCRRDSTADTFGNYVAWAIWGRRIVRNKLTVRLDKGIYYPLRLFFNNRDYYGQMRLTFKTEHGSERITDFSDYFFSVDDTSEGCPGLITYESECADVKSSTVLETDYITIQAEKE: 3.83
- SfaEH (Escherichia coli), Q1RDG5 (protein) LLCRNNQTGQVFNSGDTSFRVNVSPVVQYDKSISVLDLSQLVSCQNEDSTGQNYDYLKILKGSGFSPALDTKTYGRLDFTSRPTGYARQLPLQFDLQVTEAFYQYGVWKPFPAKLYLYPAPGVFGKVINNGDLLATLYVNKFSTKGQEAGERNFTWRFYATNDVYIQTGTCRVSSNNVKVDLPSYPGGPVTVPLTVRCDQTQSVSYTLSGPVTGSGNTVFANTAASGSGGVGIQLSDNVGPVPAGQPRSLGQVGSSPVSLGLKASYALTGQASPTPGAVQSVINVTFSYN: -0.513
- Epa3to2 (Candida glabrata) (protein) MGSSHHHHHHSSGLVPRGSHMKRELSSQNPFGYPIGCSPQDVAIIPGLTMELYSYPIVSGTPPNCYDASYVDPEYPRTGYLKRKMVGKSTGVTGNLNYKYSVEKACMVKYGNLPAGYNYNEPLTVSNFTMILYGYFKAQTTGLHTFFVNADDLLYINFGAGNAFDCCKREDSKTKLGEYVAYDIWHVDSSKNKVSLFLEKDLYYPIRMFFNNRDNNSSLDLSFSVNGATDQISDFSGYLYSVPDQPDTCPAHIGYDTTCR: 3.65
- Epa22 (Candida glabrata) (protein) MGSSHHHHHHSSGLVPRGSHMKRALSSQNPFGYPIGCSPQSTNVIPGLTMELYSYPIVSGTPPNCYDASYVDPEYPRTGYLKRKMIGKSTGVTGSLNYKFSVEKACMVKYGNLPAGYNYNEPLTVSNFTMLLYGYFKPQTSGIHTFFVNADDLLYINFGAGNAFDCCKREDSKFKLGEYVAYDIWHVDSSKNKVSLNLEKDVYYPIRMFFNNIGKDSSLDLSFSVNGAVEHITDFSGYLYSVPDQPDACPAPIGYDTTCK: 5.95
- Tp0751, 83732 (protein) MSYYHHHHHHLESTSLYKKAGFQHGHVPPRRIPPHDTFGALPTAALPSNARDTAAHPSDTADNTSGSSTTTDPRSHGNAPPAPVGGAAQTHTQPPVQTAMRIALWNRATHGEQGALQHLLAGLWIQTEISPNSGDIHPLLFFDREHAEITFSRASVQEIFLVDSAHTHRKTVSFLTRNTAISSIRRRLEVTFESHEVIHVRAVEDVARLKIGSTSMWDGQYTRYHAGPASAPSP: 2.18
- rPitB (Streptococcus pneumoniae), A0A0I7U739 (protein) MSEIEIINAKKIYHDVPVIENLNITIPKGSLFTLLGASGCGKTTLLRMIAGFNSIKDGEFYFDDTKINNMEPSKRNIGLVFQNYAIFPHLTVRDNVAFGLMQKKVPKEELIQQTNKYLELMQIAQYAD: 0.052

Attribution: the supplement of paper PMC8728848
